Each item that follows carries a reported normalized growth.
test: chemical genetic growth profiling, strain panel (AID 1159580);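 note: tested at 20 µM; growth read once vehicle control cultures reached saturation at 30 °C; 1 = growth at the plate median or of vehicle wells; lower values mean less growth of the strain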; settings: S. cerevisiae deletion strains, growth OD, locus YHR200W, strain rpn10, active compounds read low
About 2,000 (36%) of roughly 5,500 compounds were called active. Inconclusive results (about 18%) are left out. The list shows a part of the results.

# compound, normalized growth
data = [
    ("Cc1ccc(C(=O)c2ccc(CC(=O)O)n2C)cc1", 0.979),
    ("C[C@]12C=CC(=O)C=C1CCC1C2[C@@H](O)C[C@@]2(C)C1CC[C@]2(O)C(=O)CO (some centres undefined)", 0.981),
    ("Cc1onc(-c2ccccc2)c1-c1ccc(S(N)(=O)=O)cc1", 1),
    ("O=C(O)CCC1NCC2CC1CN1CCCCC21 (centres undefined)", 1),
]

====

assay: chemical genetic growth profiling, strain panel (AID 1159580); details: S. cerevisiae deletion strains, growth OD, locus YIL125W, strain kgd1, active compounds read low
About 2,000 (36%) of roughly 5,500 compounds were called active. Another 18% or so got no clear call; they are omitted. The list shows a part of the results.
Entries and their normalized growth values follow.
assay.readout: normalized growth

# compound, numeric.result
measured = [
    ("CC(=O)O[C@@H]1CC2C(C)(C)[C@H](O)CC[C@]2(C)C2CC[C@@]3(C)[C@H](c4ccoc4)OC(=O)C4OC43[C@@]21C (some centres not stated)", 0.962),
    ("CC(=O)O[C@@H]1CC2C(C)(C)[C@H](O)CC[C@]2(C)C2CC[C@@]3(C)[C@H](c4ccoc4)OC(=O)[C@H]4O[C@]43[C@@]21C (some centres not stated)", 1.01),
    ("Clc1ccc(COC(Cn2ccnc2)c2ccc(Cl)cc2Cl)cc1 (configuration not stated)", 0.0707),
    ("C1N2CN3CN1CN(C2)C3", 0.979),
    ("COC1C=CC23c4cc5c(cc4CN(CC2O)[C@@H]3C1)OCO5 (some centres not stated)", 0.981),
    ("O=C1CCCCC/C=C/CCCCCCCCO1", 0.985),
    ("CC(=O)OC1CC(O)C(C)(C)C2CC(=O)C3(C)C(CCC4(C)C(c5ccoc5)OC(=O)C5OC543)C12C (configuration not stated)", 0.997),
]

====

experiment: chemical genetic growth profiling, strain panel (AID 1159580); conditions: S. cerevisiae deletion strains, growth OD, locus YNL222W, strain SSU72, active compounds read low
The whole screen tested about 5,500 compounds, of which about 2,000 (36%) were called active. Not shown: some 18% with an inconclusive outcome. Some of the results follow.
This section presents molecules with their documented normalized growth values.

# molecule, normalized growth
data = [
    ("Cc1ccc(-c2nc(NS(=O)(=O)c3cccc4nonc34)sc2C)cc1Cl", "0.947 (inactive)"),
    ("O=S(=O)(NCc1ccc(C(F)(F)F)cc1)c1cccc(C(F)(F)F)c1", "0.983 (inactive)"),
    ("Clc1cc(Cl)cc(C=NCc2ccccc2)c1", "0.963 (inactive)"),
    ("O=C(Nc1cc(Cl)ccc1O)c1ccccc1CSc1ccc(Cl)cc1", "0.983 (inactive)"),
    ("C[C@@H](Nc1ncnc2sc3c(c12)CCCC3)c1ccccc1", "0.949 (inactive)"),
    ("CC1C(c2ccccc2)N(C)C(c2ccccc2)CC1(O)c1ccc(F)cc1 (configuration not stated)", "0.99 (inactive)"),
    ("COc1ccc(-c2csc(-c3cccnc3)n2)cc1", "0.953 (inactive)"),
    ("Clc1ccc(CSc2nccn2-c2cc(Cl)ccc2Cl)cc1", "0.961 (inactive)"),
    ("Cc1ccc(NC(=S)C(C#N)C(=O)N2CCOCC2)c(C)c1 (configuration not stated)", "0.991 (inactive)"),
    ("Clc1ccccc1-c1csc(-c2ccncc2)n1", "0.965 (inactive)"),
    ("COc1ccc(-c2cn3cc(C)ccc3n2)cc1", "0.975 (inactive)"),
    ("Cc1cccc(N=NC(C(=O)C(F)(F)F)=C(O)c2cccs2)c1", "0.987 (inactive)"),
    ("CC(C)(C)C1=C(C#N)C(c2c(Cl)cccc2Cl)C(C#N)=C(N)O1 (configuration not stated)", "0.989 (inactive)"),
    ("Clc1ccc(-c2cnc(Nc3cc(Cl)cc(Cl)c3)s2)cc1", "0.608 (active)"),
    ("Clc1cccc(Nc2ncc(-c3ccc4c(c3)OCCCO4)s2)c1", "0.98 (inactive)"),
    ("Cc1ccccc1/C=C/c1c[nH]c2ccccc12", "0.946 (inactive)"),
    ("N#Cc1cccc(CSc2nc3ccc(C(F)(F)F)cc3[nH]2)c1", "0.976 (inactive)"),
    ("Cc1noc(C)c1S(=O)(=O)Nc1csc(C(F)(F)F)c1-c1ccccc1", "0.98 (inactive)"),
    ("COc1ccc(Nc2nc(NC(=O)Nc3ccc(Cl)cc3)n[nH]2)cc1", "0.993 (inactive)"),
    ("O=C(Oc1ccc2ccccc2c1C1SCCS1)c1ccc([N+](=O)[O-])o1", "0.939 (inactive)"),
    ("Cc1c(S(=O)(=O)Nc2cccc([N+](=O)[O-])c2)sc2ccc(Cl)cc12", "0.966 (inactive)"),
    ("FC(F)(F)c1cc(NC(=S)SCCSC(=S)Nc2cc(C(F)(F)F)cc(C(F)(F)F)c2)cc(C(F)(F)F)c1", "0.989 (inactive)"),
]

====

Listed next: entries and their corresponding normalized growth.
assay: chemical genetic growth profiling, strain panel (AID 1159580);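 note: tested at 20 µM; growth read once vehicle control cultures reached saturation at 30 °C; 1 = growth at the plate median or of vehicle wells; lower values mean less growth of the strain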; conditions: S. cerevisiae deletion strains, growth OD, locus YNL322C, strain KRE1, active compounds read low
About 2,000 (36%) of roughly 5,500 compounds were called active. About 18% were inconclusive and are not listed. Some of the results follow.

# compound, normalized growth
measured = [
    ("CCCCCCCCCCCCCC(=O)OC1C(C)C2(O)C(C=C(CO)CC3(O)C(=O)C(C)=CC32)C2C(C)(C)C12OC(C)=O (stereo unspecified)", 0.997),
    ("CC(C)c1nc(N(C)S(C)(=O)=O)nc(-c2ccc(F)cc2)c1/C=C/[C@@H](O)C[C@@H](O)CC(=O)O", 1),
    ("CCCN(CCC)S(=O)(=O)c1ccc(C(=O)NCC(=O)O)cc1", 1.01),
    ("Cc1cc(CC(=O)O)n(C)c1C(=O)c1ccc(Cl)cc1", 1.01),
    ("CC(=O)O[C@@H]1CC2C(C)(C)C(=O)C3OC3[C@]2(C)C2CC[C@@]3(C)[C@H](c4ccoc4)OC(=O)C4OC43[C@@]21C (stereo partly specified)", 1.01),
    ("c1ccc2c(CC3=NCCN3)cccc2c1", 1),
    ("CCCCS(=N)(=O)CC[C@H](N)C(=O)O (stereo partly specified)", 0.994),
    ("CN(C)C/C=C(/c1ccc(Br)cc1)c1cccnc1", 0.926),
    ("Cc1onc(-c2ccccc2)c1-c1ccc(S(N)(=O)=O)cc1", 1.01),
    ("CC(=O)O[C@H]1C[C@@H](OC(C)=O)C(C)(C)C2C[C@@H](O)[C@]3(C)C(CC[C@@]4(C)[C@H](c5ccoc5)OC(=O)[C@H]5O[C@]543)[C@]21C (stereo partly specified)", 0.987),
    ("O=C(O)C(O)C(O)C(=O)O (stereo unspecified)", 0.99),
]

====

assay: chemical genetic growth profiling, strain panel (AID 1159580);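 note: tested at 20 µM; growth read once vehicle control cultures reached saturation at 30 °C; 1 = growth at the plate median or of vehicle wells; lower values mean less growth of the strain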; conditions: S. cerevisiae deletion strains, growth OD, locus YKL068W, active compounds read low
The campaign covered roughly 5,500 compounds. About 2,000 (36%) were called active. Another 18% or so got no clear call; they are omitted. The list shows a part of the results.
Catalogue of compounds with associated normalized growth
assay.readout: normalized growth

# compound, numeric.result
data = [
    ("CC(=O)O[C@@H]1CC2C(C)(C)[C@H](O)CC[C@]2(C)C2CC[C@@]3(C)[C@H](c4ccoc4)OC(=O)C4OC43[C@@]21C (stereo partly drawn)", 0.991),
    ("CC(=O)O[C@H]1CC[C@@]2(C)C(C[C@@H](OC(C)=O)[C@]3(C)C2CC[C@@]2(C)[C@H](c4ccoc4)OC(=O)[C@H]4O[C@]423)C1(C)C (stereo partly drawn)", 1),
    ("COc1cc(OC)c2c(=O)cc(-c3ccccc3)oc2c1", 0.967),
]

====

assay: chemical genetic growth profiling, strain panel (AID 1159580);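 note: tested at 20 µM; growth read once vehicle control cultures reached saturation at 30 °C; 1 = growth at the plate median or of vehicle wells; lower values mean less growth of the strain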; details: S. cerevisiae deletion strains, growth OD, locus YDL005C, strain med2, active compounds read low
The whole screen tested about 5,500 compounds, of which about 2,000 (36%) were called active. Roughly 18% stayed inconclusive and do not appear here. The list shows a part of the results.

# compound, normalized growth
rows = [
    ("O=c1oc2ccccc2cc1O", 0.986),
    ("CC(=O)OC/C=C(\\C)CC/C=C(\\C)CC/C=C(\\C)CC/C=C(\\C)CC/C=C(\\C)CC/C=C(\\C)CC/C=C(\\C)CC/C=C(\\C)CCC=C(C)C", 0.976),
    ("CC(=O)O[C@H]1C[C@@H](OC(C)=O)C(C)(C)C2C[C@@H](O)[C@]3(C)C(CC[C@@]4(C)[C@H](c5ccoc5)OC(=O)[C@H]5O[C@]543)[C@]21C (some centres undefined)", 1.01),
    ("COc1cc(C)c2c(=O)cc(-c3ccccc3)oc2c1", 0.956),
    ("COc1ccc2oc3ccccc3c(=O)c2c1", 0.978),
    ("Cc1ccc(C(=O)c2ccc(CC(=O)O)n2C)cc1", 1.03),
    ("CCC(=O)OC1[C@@H]2CC3=C4CC(=O)O[C@@H](c5ccoc5)[C@]4(C)CCC3[C@@](C)(C2=O)[C@@H](CC(=O)OC)C1(C)C (some centres undefined)", 0.978),
    ("COc1ccc(CCC(=O)c2c(O)cc(O[C@@H]3O[C@H](CO)C(O)[C@H](O)C3O[C@@H]3O[C@@H](C)[C@H](O)[C@@H](O)[C@H]3O)cc2O)cc1O (some centres undefined)", 1.03),
    ("Cc1oncc1C(=O)Nc1ccc(C(F)(F)F)cc1", 1.02),
    ("C[C@H]1C[C@@H](O)[C@]2(O)[C@@]13CC(=O)OC[C@@]2(C)[C@](C)(O)C(=O)C3", 1.03),
    ("CC(=O)Oc1c2c(c3c(c1CC=C(C)C)O[C@]14C(=C[C@@H]5CC1C(C)(C)OC4(C/C=C(\\C)C(=O)O)C5=O)C3=O)OC(C)(CCC=C(C)C)C=C2 (some centres undefined)", 0.968),
    ("c1ccc2c(CC3=NCCN3)cccc2c1", 0.962),
    ("Nc1nc(F)nc2c1ncn2[C@@H]1O[C@H](COP(=O)(O)O)[C@@H](O)[C@@H]1O", 0.984),
    ("CC(=O)O[C@]1(C)CC[C@@]23CC1C(C)(C)[C@@H]2CC[C@H]3C", 0.967),
]
